Sourced from PubChem BioAssay

Below: a set of entries, each annotated with reported inhibition.
biological target: Nuclear receptor coactivator 2 (Homo sapiens) (UniProt Q15596); experiment: SRC2 coactivator transcriptional activity inhibitors, confirmation, cell-based, luminescence, HEK293, triplicate (AID 652008); settings: HEK293 GAL4-SRC2 luciferase reporter, at 8.9 µM, active compounds read high;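 note: 0% = DMSO-treated cells and 100% = Gossypol at 36 µM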
Sequence (Q15596 whole entry, looked up, the tested form may be a part): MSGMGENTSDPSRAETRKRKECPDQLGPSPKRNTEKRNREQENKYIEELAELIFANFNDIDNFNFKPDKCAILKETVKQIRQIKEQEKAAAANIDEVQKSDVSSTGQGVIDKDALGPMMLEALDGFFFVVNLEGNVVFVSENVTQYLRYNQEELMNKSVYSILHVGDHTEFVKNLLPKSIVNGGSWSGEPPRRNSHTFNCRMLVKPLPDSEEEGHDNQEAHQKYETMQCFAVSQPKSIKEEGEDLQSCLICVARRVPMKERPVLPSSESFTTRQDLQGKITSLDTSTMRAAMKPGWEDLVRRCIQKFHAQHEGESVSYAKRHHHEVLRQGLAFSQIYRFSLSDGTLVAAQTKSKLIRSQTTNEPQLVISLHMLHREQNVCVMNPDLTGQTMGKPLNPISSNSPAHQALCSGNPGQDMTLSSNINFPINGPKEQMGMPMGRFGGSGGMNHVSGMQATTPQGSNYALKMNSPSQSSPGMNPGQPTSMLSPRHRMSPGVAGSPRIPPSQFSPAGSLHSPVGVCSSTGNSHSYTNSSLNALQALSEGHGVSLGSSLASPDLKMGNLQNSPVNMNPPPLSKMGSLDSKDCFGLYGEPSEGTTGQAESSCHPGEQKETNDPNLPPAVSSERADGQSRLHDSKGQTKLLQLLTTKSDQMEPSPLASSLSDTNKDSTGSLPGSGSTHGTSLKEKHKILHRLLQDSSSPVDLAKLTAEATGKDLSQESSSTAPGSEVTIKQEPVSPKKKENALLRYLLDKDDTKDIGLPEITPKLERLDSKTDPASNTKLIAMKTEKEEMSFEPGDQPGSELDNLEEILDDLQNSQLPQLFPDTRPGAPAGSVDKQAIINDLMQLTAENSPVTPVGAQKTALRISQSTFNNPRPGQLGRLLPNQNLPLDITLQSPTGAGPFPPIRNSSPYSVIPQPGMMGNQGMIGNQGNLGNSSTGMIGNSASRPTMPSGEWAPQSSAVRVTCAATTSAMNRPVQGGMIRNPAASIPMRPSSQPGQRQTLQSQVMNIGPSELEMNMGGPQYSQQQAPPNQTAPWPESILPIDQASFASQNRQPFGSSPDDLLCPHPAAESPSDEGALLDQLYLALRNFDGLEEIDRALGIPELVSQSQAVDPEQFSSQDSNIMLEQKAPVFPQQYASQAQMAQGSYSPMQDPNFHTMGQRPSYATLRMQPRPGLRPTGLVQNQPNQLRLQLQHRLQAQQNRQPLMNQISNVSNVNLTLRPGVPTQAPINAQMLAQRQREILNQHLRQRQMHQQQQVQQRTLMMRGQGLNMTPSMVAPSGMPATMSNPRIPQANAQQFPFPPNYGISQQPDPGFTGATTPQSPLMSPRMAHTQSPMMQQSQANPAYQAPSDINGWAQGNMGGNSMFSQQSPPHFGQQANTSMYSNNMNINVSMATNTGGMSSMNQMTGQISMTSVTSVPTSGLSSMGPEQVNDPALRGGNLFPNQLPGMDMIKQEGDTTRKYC
Form entry: value (%) — number only.

Can you look up the measured inhibition of `COc1ccc(CNC(=O)COC(=O)/C=C/c2cccc(Br)c2)cc1OC` for me? -19.4

Others:
Can you look up the measured inhibition of `Cc1c(NC(=O)COC(=O)C23CC4CC(CC(O)(C4)C2)C3)c(=O)n(-c2ccccc2)n1C` for me? 3.79

Can you look up the measured inhibition of `Cc1cc(C(=O)Nc2ccc(Cl)cc2)c(C)n1-c1ccccc1` for me? 85.7

Can you look up the measured inhibition of `O=C(CCCc1cccs1)N1CCN(S(=O)(=O)c2ccccc2Br)CC1` for me? -4.17

Can you look up the measured inhibition of CCN(C(=O)C1CCCN(c2nnc(-n3cccc3)s2)C1)c1ccccc1C (stereo unspecified) for me? 16.4

Can you look up the measured inhibition of COC(=O)C1Cc2ccccc2CN1C(=O)CCl (stereo unspecified) for me? 33.2

Can you look up the measured inhibition of `Nc1nonc1-n1nnc(C(=O)N/N=C/c2ccccc2Br)c1CN1CCCC1` for me? -12.4

Can you look up the measured inhibition of `CC(C)(C)NS(=O)(=O)c1ccc(Oc2ncc(C(F)(F)F)cc2Cl)cc1` for me? 14.2

Can you look up the measured inhibition of `CSCC[C@H](NC(=O)c1cc([N+](=O)[O-])ccc1Cl)c1nc2ccccc2[nH]1` for me? 19

Can you look up the measured inhibition of `Cc1ccc(C)c(OCc2ccc(C(=O)Nc3ccc([N+](=O)[O-])cn3)o2)c1` for me? 35.9

Can you look up the measured inhibition of `NNC(=O)COc1ccc(C(F)(F)F)cc1` for me? 4.91

---

Below: a set of entries, each annotated with reported activation.
test system: DAF-12 nuclear receptor (Heterodera glycines), GAL4-LBD fusion; experiment: H. glycines DAF-12 receptor agonists, confirmation, cell-based, luminescence, HEK293, GAL4-LBD fusion (AID 743050); conditions: HEK293 GAL4-hgDAF12 luciferase reporter, agonist mode; at 6.8 µM; active compounds read high; percent of butyrate response;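 note: 0% = DMSO low control and 100% = 2 mM sodium butyrate high control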
Some of the results follow. Calls of active or inactive are those of the source.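 The calls were made as follows: active = mean activation over triplicate wells above the hit cutoff derived from the earlier primary screen (cut at about 11% in these data); inactive = the rest.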

Can you look up the measured activation of `CC(/C=N/NC(=O)c1cc(-c2ccc3ccccc3c2)n[nH]1)=C\c1ccco1` for me? 1.68% (inactive)

Others:
Can you look up the measured activation of `COC(=O)N/N=C/c1cn(CCCOc2ccc(C)cc2)c2ccccc12` for me? 6.55% (inactive)

Can you look up the measured activation of `COc1ccc(-c2cn3ccsc3n2)cc1` for me? 16.3% (active)

---

Below: a set of entries, each annotated with reported inhibition.
assay: VP16 transactivation reporter inhibitors, counter-screen for LRH-1 inverse agonist project, cell-based, luminescence, high throughput (AID 651615); details: Gal4-VP16 luciferase reporter cells, at 3.6 µM, active compounds read high
Form entry: value (%) — number only.

Can you look up the measured inhibition of `Cc1ccc2c(c1)Oc1ccc(NC(=O)CCl)cc1C(=O)N2` for me? 16.8

Can you look up the measured inhibition of Cc1sc2ncnc(NCC(O)c3ccc([N+](=O)[O-])cc3)c2c1C (stereo not given) for me? 42.1

Can you look up the measured inhibition of `CC(/C=C(\NC(=O)c1ccccc1)C(=O)N=Nc1c(O)[nH]c2ccc(C)cc12)=C\c1ccccc1` for me? 14.1

Can you look up the measured inhibition of `COc1ccc(NC(=O)C2=CC(c3ccc(OC)c(OC)c3)=NS(=O)(=O)N2C)cc1` for me? 18.4

Can you look up the measured inhibition of COCCNc1ccc([N+](=O)[O-])cc1C(=O)NC1CCCc2ccccc21 (stereo not given) for me? 12.8

Can you look up the measured inhibition of C=C1C(=O)[C@]23C[C@H]1CCC2[C@@]1(C)C(C[C@@H]3O)[C@](C)(C(=O)OC)CC[C@@H]1OC(C)=O (stereo not given in full) for me? 76.2

Can you look up the measured inhibition of `COc1ccc(-c2cn(-c3ccccc3)c3[n+]2CCS3)cc1` for me? 45.1

Can you look up the measured inhibition of `CCOC(=O)c1c2c(n(-c3ccc(OC)cc3)c1C)C(=O)C(=O)c1ccccc1-2` for me? 50.3

Can you look up the measured inhibition of `COc1ccc(/C=C/c2nc3ccccc3c(=O)o2)cc1` for me? -63

Can you look up the measured inhibition of `CN(CCOc1ccc(Cl)cc1)C(=O)c1cccc(S(=O)(=O)N2CCN(c3ccc(F)cc3)CC2)c1` for me? 53.2

Can you look up the measured inhibition of OCC1OC(n2ccc3c2ncn2ncnc32)C(O)C1O (stereo not given) for me? 60.2

Can you look up the measured inhibition of `Cc1ccn2c(=O)nc(SCC(=O)Nc3ccc4c(c3)OCCO4)nc2c1` for me? -15.9

Can you look up the measured inhibition of `COc1cc(NS(C)(=O)=O)ccc1Nc1c2ccccc2nc2ccccc12` for me? 78.8

Can you look up the measured inhibition of COc1ccc(CC2C(=O)NC(C)C(=O)N(C)C3Cc4ccc(cc4)Oc4cc(ccc4O)CC(C(=O)NC(C)C(=O)NC(C)C(=O)N2C)N(C)C3=O)cc1 (stereo not given) for me? 97.2

Can you look up the measured inhibition of `C(=N\Nc1nc2ccccc2[nH]1)/c1cccc2cccnc12` for me? 23.9

---

target: Steroidogenic factor 1 (Homo sapiens); test: SF1 (NR5A1) inverse agonists, counter-screen for LRH-1 inverse agonist project, cell-based, luminescence, high throughput (AID 651614); conditions: cell-based SF1 luciferase reporter, at 3.6 µM;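 note: cells cotransfected with StAR promoter reporter and SF1 expression vector; 0% = vehicle on cells with receptor and 100% = vehicle on cells lacking receptor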
The source made the active and inactive calls. Rule as the data show it: active = inhibition above about 44%; inactive = the rest.
Outcome (select one): 1 (yes) (active), 0 (no) (inactive)

What call does the record list for `CCCCCCCCCCCCCCCCn1cc[n+](C)c1` ? 1 (yes)

Others:
What call does the record list for `Cc1ccc(-c2nn3c(C)nnc3s2)cc1NC(=O)c1cccs1` ? 1 (yes)

What call does the record list for O=C(CCl)N(c1ccccc1)C1CCS(=O)(=O)C1 (stereo not given) ? 1 (yes)

What call does the record list for CCc1ccccc1NC(=O)CSc1nnc([C@@H](NC(=O)OC(C)(C)C)C(C)CC)o1 (stereo not given in full) ? 0 (no)

What call does the record list for COc1cccc(C2c3cc4c(cc3OC(N3CCOCC3)C2C)OCO4)c1O (stereo not given) ? 1 (yes)

---

target: Nuclear receptor coactivator 3 (Homo sapiens); assay: SRC3 coactivator transcriptional activity inhibitors, confirmation, cell-based, luminescence, quadruplicate (AID 588792); details: HEK293 GAL4-SRC3 luciferase reporter, at 3.6 µM, active compounds read high;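 note: 0% = DMSO treated cells and 100% = gossypol at 36 µM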
Below: a set of entries, each annotated with reported inhibition.
Form entry: value (%) — number only.

Can you look up the measured inhibition of CC(C)(C)S(=O)N1Cc2cc(C(=O)NCC(F)(F)F)nc(-c3cccc(-c4cccc(F)c4)c3)c2[C@@H]1CCO (some centres not stated) for me? 10.3

Can you look up the measured inhibition of COc1ccc(CNS(=O)(=O)c2ccc3c(c2)N(C(C)=O)CC(C)S3)cc1 (configuration not stated) for me? 7.83

Others:
Can you look up the measured inhibition of O=C1CC(c2ccc3c(c2)OCO3)Sc2nc3ccccc3n21 (configuration not stated) for me? -6.28

Can you look up the measured inhibition of `COc1cc(/C=C2\SC(N)=NC2=O)cc(OC)c1` for me? 20.4

Can you look up the measured inhibition of `O=[N+]([O-])c1ccc(O)c(/C=N/Nc2ccccn2)c1` for me? 56.8

Can you look up the measured inhibition of `Nc1ccccc1Nc1cccc(C(F)(F)F)c1` for me? 25.9

Can you look up the measured inhibition of `COc1cc(C=NO)nc(-c2ccccn2)c1` for me? 78.2

---

experiment: VP16 transactivation reporter inhibitors, counter-screen for LRH-1 inverse agonist project, cell-based, luminescence, high throughput (AID 651615); conditions: Gal4-VP16 luciferase reporter cells, at 3.6 µM
The source made the active and inactive calls. Rule as the data show it: active = inhibition above about 33%; inactive = the rest.
Outcome (select one): active, inactive

Solved entries (count: 2):
What call does the record list for Cc1cccc(C)c1NC(=O)C(c1ccc(C(F)(F)F)cc1)n1c(=O)c(-c2cc3ccccc3[nH]2)nc2ccccc21 (stereo unspecified) ? inactive

What call does the record list for `O=C(CSc1nc(=O)n2cc(Cl)ccc2n1)Nc1ccc2c(c1)OCCO2` ? inactive

Others:
What call does the record list for `COc1cc(/C=C2/SC(=Nc3ccc(O)cc3)NC2=O)ccc1O` ? inactive

What call does the record list for CN1C(=O)NC(c2ccccc2[N+](=O)[O-])C2=C1CC(C)(C)CC2=O (stereo unspecified) ? inactive

What call does the record list for `CN(C)c1ccc(C=c2c3ccccc3n3c2cc(-c2ccccc2)[n+]3C)cc1` ? active
